Assay Method Text: viability loss with induced miR-34 in A549 – imaging, A549 dox-inducible miR-34, nuclei and caspase counts, primary screen (AID 1347080); further: test concentration not given here
Experimental Parameters: A549 miR-34 inducible, Hoechst nuclei count, 48 h; active compounds read low; cell number ratio, induced over uninduced

- Compound: "CON=C1C[C@]2(C[C@@H]3C[C@@H](C/C=C(\\C)C[C@@H](C)/C=C/C=C4\\CO[C@@H]5[C@H](O)C(C)=C[C@@H](C(=O)O3)[C@]45O)O2)O[C@H](/C(C)=C/C(C)C)[C@H]1C"
  fold change: 1
- Compound: "COC1C=CO[C@@]2(C)Oc3c(C)c(O)c4c(O)c(c(C=NN5CCN(C)CC5)c(O)c4c3C2=O)NC(=O)C(C)=CC=CC(C)C(O)C(C)C(O)C(C)C(OC(C)=O)C1C (some centres undefined)"
  fold change: 0.973
- Compound: "CC(=O)[C@H]1CC[C@H]2[C@@H]3C=CC4=CC(=O)CC[C@@]4(C)[C@H]3CC[C@]12C"
  fold change: 0.894
- Compound: "C#C[C@@]1(O)CC[C@H]2[C@@H]3CCC4=CC(=O)CC[C@@H]4[C@@H]3CC[C@@]21CC"
  fold change: 0.929
- Compound: "CCN1C(=CC(C)=O)Sc2ccc(OC)cc21"
  fold change: 0.889
- Compound: "CC(C)C[C@H](NC(=O)[C@@H](Cc1c[nH]c2ccccc12)NC(=O)[C@H](Cc1ccc(O)cc1)NC(=O)[C@H](CO)NC(=O)[C@H](Cc1c[nH]c2ccccc12)NC(=O)[C@H](Cc1cnc[nH]1)NC(=O)[C@@H]1CCC(=O)N1)C(=O)N[C@@H](CCCN=C(N)N)C(=O)N1CCC[C@H]1C(=O)NCC(N)=O"
  fold change: 0.921
- Compound: "CC(N)=NCCCC[C@@H](N)C(=O)O"
  fold change: 1.08
- Compound: "C=CCn1c(=O)c2c(nc(-c3ccc(S(=O)(=O)O)cc3)n2C)n(C)c1=O"
  fold change: 1.02
- Compound: "CCC1C(=O)N(C)CCN1C(=O)Nc1nc(C)ns1 (centres undefined)"
  fold change: 1.02

----------
Assay Method Text: viability loss with induced miR-34 in A549 – imaging, A549 dox-inducible miR-34, nuclei and caspase counts, primary screen (AID 1347080); further: test concentration not given here
Experimental Parameters: A549 miR-34 inducible, Hoechst nuclei count, 48 h; active compounds read low; cell number ratio, induced over uninduced
Observable: fold change

- Molecule: "Cn1c(-c2ccc3c(c2)OCO3)cc(=O)c2ccccc21"
  Recorded Value: 0.89
- Molecule: "CC(=Cc1ccc(C(=O)O)cc1)c1ccc2c(c1)C(C)(C)CCC2(C)C"
  Recorded Value: 0.986
- Molecule: "Fc1ccc2[nH]c(CN3CCN(c4ccccn4)CC3)cc2c1"
  Recorded Value: 0.975
- Molecule: "CC(=O)Nc1nc2c(Oc3cc(-c4ccc(C(F)(F)F)cc4)ncn3)cccc2s1"
  Recorded Value: 0.981
- Molecule: "O=C(Nc1n[nH]c(-c2ccco2)n1)N1CCc2ccccc2C1"
  Recorded Value: 0.896
- Molecule: "COc1ccc(-c2cc(=O)c3c(O)cc(OC4OC(COC5OC(C)C(O)C(O)C5O)C(O)C(O)C4O)cc3o2)cc1O (configuration not stated)"
  Recorded Value: 0.912
- Molecule: "COc1cccc(OC)c1-c1ccc(C(=O)Nc2cccnc2)o1"
  Recorded Value: 0.893
